tgt: human recombinant CK2α1 (Homo sapiens)
Construct: purchased Promega V4482
Sequence (P68400 whole entry): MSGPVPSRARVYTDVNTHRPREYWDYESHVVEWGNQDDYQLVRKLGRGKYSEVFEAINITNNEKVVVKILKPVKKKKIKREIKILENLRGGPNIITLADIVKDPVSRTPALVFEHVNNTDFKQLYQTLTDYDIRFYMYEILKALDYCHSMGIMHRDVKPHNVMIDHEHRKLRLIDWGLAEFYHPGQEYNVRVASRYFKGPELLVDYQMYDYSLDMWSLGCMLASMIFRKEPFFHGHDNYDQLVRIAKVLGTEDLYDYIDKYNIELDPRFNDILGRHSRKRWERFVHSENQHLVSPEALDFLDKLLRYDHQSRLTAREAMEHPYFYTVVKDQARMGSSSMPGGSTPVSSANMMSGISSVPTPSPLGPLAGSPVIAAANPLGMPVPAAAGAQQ
assay text: CK2 ADP-Glo kinase assay
Format: biochemical
Listed compounds paired with reported IC50
All answers are understood in µM, so give the number only.

• CCC1=C([N+](=O)[O-])C(c2ccc([N+](=O)[O-])cc2)n2ncc(C#N)c2N1 (centres unmarked) = 59.5

Turning now to a further compound:
Fill in the blank: the reported IC50 of CCOC(=O)c1cnn2c1NC(CC)=C([N+](=O)[O-])C2c1ccc([N+](=O)[O-])cc1 (centres unmarked) is ____.
52.8

----------
Listed compounds paired with reported Cytotoxicity index IC50 ± SE, Hos
System: Hos cells
assay text: MTT test, osteosarcoma cells
Assay type: cell-based, human
particulars: MTT, 72 h incubation
Protocol: The studies were carried out on cultured cells of human glioblastoma (A-172, ATCC CRL 1620), human osteosarcoma (Hos, ATCC CRL 1543), human embryonic rhabdomyosarcoma (Rd, ATCC CRL 136), and human embryonic kidney 293 cells (Hek-293, ATCC CRL 1573) obtained from the Shared research facility “Vertebrate cell culture collection” (Institute of Cytology RAS, Saint-Petersburg, Russia). The cells were cultured using DMEM / F-12 medium containing 10% fetal bovine serum at 37°C, 5% CO2, and 98% humidity. […]
All answers are understood in µM, so give the number only.

• CCC1=C([N+](=O)[O-])C(c2ccc(OC)cc2)n2ncc(C#N)c2N1 (stereo not drawn) [Compound 5i] = 88.44
• CCC1=C([N+](=O)[O-])C(c2ccc([N+](=O)[O-])cc2)n2nc(C(F)(F)F)nc2N1 (stereo not drawn) [Compound 6e] = 93.72
• CCC1=C([N+](=O)[O-])C(c2cccs2)n2ncc(C#N)c2N1 (stereo not drawn) [Compound 5k] = 77.32
• O=[N+]([O-])C1=CNc2ncnn2C1c1ccccc1 (stereo not drawn) [Compound 6a] = 542.85
• CSc1nc2n(n1)C(c1ccccc1)C([N+](=O)[O-])=C(C)N2 (stereo not drawn) [Compound 6b] = 92.03

Fill in the blank: the reported Cytotoxicity index IC50 ± SE, Hos of CC1=C([N+](=O)[O-])C(c2cccs2)n2nccc2N1 (stereo not drawn) [Compound 5d] is ____.
103.53

Fill in the blank: the reported Cytotoxicity index IC50 ± SE, Hos of CCC1=C([N+](=O)[O-])C(c2ccc([N+](=O)[O-])cc2)n2ncc(C#N)c2N1 (stereo not drawn) [Compound 5h] is ____.
234.97

Fill in the blank: the reported Cytotoxicity index IC50 ± SE, Hos of N#Cc1cnn2c1NC=C([N+](=O)[O-])C2c1ccccc1 (stereo not drawn) [Compound 5g] is ____.
181.14

Fill in the blank: the reported Cytotoxicity index IC50 ± SE, Hos of CCOC(=O)c1cnn2c1NC(CC)=C([N+](=O)[O-])C2c1ccc([N+](=O)[O-])cc1 (stereo not drawn) [Compound 5f] is ____.
170.14
